- Test system: α-isomaltosylglucosaccharide-forming enzyme from Arthrobacter globiformis A19
- method_notes: Action on saccharides (TLC before and after enzymatic reaction)
- Assay type: biochemical
- Parameters: key: −: it showed no change; +: it showed a slight reduction of the color spot of the substrate and the formation of other reaction product; ++: it showed a high reduction of the color spot of the substrate and the formationof other reaction product; +++: it showed a substantial disappearance of the substrate spot and the formation of other reaction product
- assay_setup: two units/g substrate, substrate 2% (w/v), 30° C., pH 8.4, 24 hours

given_smiles	study_target	Enzyme action, A19 enzyme
OC[C@H]1O[C@@](CO)(O[C@H]2O[C@H](CO)[C@@H](O[C@H]3O[C@H](CO)[C@@H](O)[C@H](O)[C@H]3O)[C@H](O)[C@H]2O)[C@@H](O)[C@@H]1O	α-isomaltosylglucosaccharide-forming enzyme from Arthrobacter globiformis A19	+
OC[C@H]1O[C@H](O[C@H]2O[C@H](CO)[C@@H](O)[C@H](O)[C@H]2O[C@H]2O[C@H](CO)[C@@H](O)[C@H](O)[C@H]2O)[C@H](O)[C@@H](O)[C@@H]1O	α-isomaltosylglucosaccharide-forming enzyme from Arthrobacter globiformis A19	−
OC[C@H]1O[C@H](O[C@H]2[C@H](O)[C@@H](O)[C@H](O)O[C@@H]2CO)[C@H](O)[C@@H](O)[C@@H]1O	α-isomaltosylglucosaccharide-forming enzyme from Arthrobacter globiformis A19	+
